# Assay explanation: Inhibition of beta-lactamase VIM4 (unknown origin) expressed in Escherichia coli BL21(DE3) using imipenem as substrate by measuring substrate hydrolysis at 100 uM by spectrophotometric analysis
The following molecules are shown together with reported inhibition values.
Response body: numeric value in %, unit text excluded.

Worked cases, answers included:
[[record]]
smiles_record = "Oc1ccc(/C=N/n2c(-c3cccc4ccccc34)n[nH]c2=S)c(O)c1"
units = "%"
value_observed = 32

[[record]]
smiles_record = "O=C(O)c1ccccc1/C=N/n1c(Cc2ccccc2)n[nH]c1=S"
units = "%"
value_observed = 57

[[record]]
smiles_record = "Cc1ccccc1-c1n[nH]c(=S)n1/N=C/c1cc(O)ccc1[N+](=O)[O-]"
units = "%"
value_observed = 32


Consider the record given below.
Form field inhibition, entry `COc1ccc(/C=N/n2c(-c3ccccc3C)n[nH]c2=S)c(O)c1` : 55

* * *

# Assay explanation: Inhibition of beta-lactamase IMP-1 (unknown origin) expressed in Escherichia coli BL21(DE3) using imipenem as substrate by measuring substrate hydrolysis at 100 uM by spectrophotometric analysis
The source made the active and inactive calls. The rule behind the calls is not given here.
Reported endpoint: inhibition

Worked cases, answers included:
[[record]]
smiles_record = "Oc1ccc(/C=N/n2c(COc3ccc4ccccc4c3)n[nH]c2=S)c(O)c1"
value_observed = "33%"

[[record]]
smiles_record = "Oc1ccc(/C=N/n2c(-c3ccccc3O)n[nH]c2=S)c(O)c1"
value_observed = "inactive"

[[record]]
smiles_record = "Cc1ccccc1-c1n[nH]c(=S)n1/N=C/c1ccc(F)cc1"
value_observed = "30%"

[[record]]
smiles_record = "O=C(O)c1ccccc1/C=N/n1c(Cc2ccccc2)n[nH]c1=S"
value_observed = "48%"

[[record]]
smiles_record = "O=C(O)c1ccccc1/C=N/n1c(-c2ccc(Cl)cc2)n[nH]c1=S"
value_observed = "inactive"


Form field inhibition, entry `Oc1ccc(/C=N/n2c(-c3cccc(Cl)c3)n[nH]c2=S)c(O)c1` : 66%

Form field inhibition, entry `Oc1ccc(/C=N/n2c(CC(c3ccccc3)c3ccccc3)n[nH]c2=S)c(O)c1` : 35%

Form field inhibition, entry `O=C(O)c1ccccc1/C=N/n1c(-c2cc(O)ccc2O)n[nH]c1=S` : inactive

* * *

# Assay explanation: Inhibition of beta-lactamase L1 (unknown origin) expressed in Escherichia coli BL21(DE3) using nitrocefin as substrate by measuring substrate hydrolysis at 100 uM preincubated for 30 mins by spectrophotometric analysis
Active and inactive are the calls of the source. The calls are words filed in the database; no cut-off is given here.
Reported endpoint: inhibition

[[record]]
smiles_record = "Oc1ccc(/C=N/n2c(-c3ccc4ccccc4c3)n[nH]c2=S)c(O)c1"
reported_endpoint = "inhibition"
value_observed = "inactive"

[[record]]
smiles_record = "O=C(O)c1ccccc1/C=N/n1c(-c2ccncc2)n[nH]c1=S"
reported_endpoint = "inhibition"
value_observed = "32%"

[[record]]
smiles_record = "S=c1[nH]nc(C(c2ccccc2)c2ccccc2)n1/N=C/c1ccc(OCc2ccccc2)cc1"
reported_endpoint = "inhibition"
value_observed = "inactive"

[[record]]
smiles_record = "COc1ccc(/C=N/n2c(-c3ccccc3C)n[nH]c2=S)c(O)c1"
reported_endpoint = "inhibition"
value_observed = "55%"


* * *

# Assay explanation: Inhibition of beta-lactamase VIM4 (unknown origin) expressed in Escherichia coli BL21(DE3) using imipenem as substrate by measuring substrate hydrolysis at 100 uM by spectrophotometric analysis
The source made the active and inactive calls. The rule behind the calls is not given here.
Reported endpoint: inhibition

Worked cases, answers included:
[[record]]
smiles_record = "S=c1[nH]nc(Cc2ccc3ccccc3c2)n1/N=C/c1ccc(OCc2ccccc2)cc1"
value_observed = "inactive"

[[record]]
smiles_record = "Cc1ccccc1-c1n[nH]c(=S)n1/N=C/c1cc([N+](=O)[O-])ccc1O"
value_observed = "44%"

[[record]]
smiles_record = "Oc1ccc(/C=N/n2c(Cc3ccc4ccccc4c3)n[nH]c2=S)c(O)c1"
value_observed = "30%"

[[record]]
smiles_record = "S=c1[nH]nc(-c2ccc(OCc3ccccc3)cc2)n1/N=C/c1ccc(OCc2ccccc2)cc1"
value_observed = "inactive"

[[record]]
smiles_record = "Oc1ccc(/C=N/n2c(-c3cccc(-c4ccccc4)c3)n[nH]c2=S)c(O)c1"
value_observed = "65%"

[[record]]
smiles_record = "S=c1[nH]nc(-c2ccccc2)n1/N=C/c1ccccc1"
value_observed = "inactive"

[[record]]
smiles_record = "Cc1ccccc1-c1n[nH]c(=S)n1/N=C/c1ccc(F)cc1"
value_observed = "inactive"

[[record]]
smiles_record = "O=C(O)c1ccccc1/C=N/n1c(-c2cccc(F)c2)n[nH]c1=S"
value_observed = "51%"

[[record]]
smiles_record = "Oc1ccc(/C=N/n2c(-c3ccc(OCc4ccccc4)cc3)n[nH]c2=S)c(O)c1"
value_observed = "inactive"


Form field inhibition, entry `S=c1[nH]nc(-c2cccc(Cl)c2)n1/N=C/c1ccc(OCc2ccccc2)cc1` : 35%
